Data provenance: the nanobody polyreactivity screen of Harvey et al. (2022)

# Experiment Summary: yeast display, Sf9 membrane polyspecificity reagent, FACS + sequencing; frameworks hold sequencing errors

Residue Sequence	polyreactivity (PSR sort gate)
QVQLVESGGGLVKAGGSLRLSCAASGFTFLNNTMGWYRQAPGKERELVAGITSSGDRTYYADSVKGRFTISRDNAKNTVYLQMNSLKPEDTAVYYCNADSSYPPGYDYWGQGTQVTVSS	low polyreactivity
QVQLVESGGGLVQAGGSLRLSCAASGSIFYYYAMGWYRQAPGKERELVAAISSGGSTNYADSVKGRFTISRDYAKNTVYLQMNSLKPEDTAVYYCAADYRAQYVVWYTYDYWGQGTQVTVSS	low polyreactivity
QVQLVESGGGLVQAGGSLRLSCAASGRTIPAYAMGWYRQAPGKERELVAAISWGGGSTYYADSVKGRFTISRDNAKNTVYLQMNSLKPEDTAVYYCAVAGYWFAVAEYDYWGQGTQVTVSS	low polyreactivity
QVQLVESGGGLVQAGGSLRLSCAASGSTFGRNTMGWYRQAPGKERELVAAITSCDTTTYADSVKGRFTISLDNAKNTVYIQMNSLKPEDTAVYYCAVDPVRGLDYSWMDYWGQGTQVTVSS	low polyreactivity

---

# Experiment Summary: yeast display, Sf9 membrane polyspecificity reagent, FACS + sequencing; frameworks hold sequencing errors
Parameter Measured: polyreactivity (PSR sort gate)

Below, 8 sequences whose answers are already recorded.
Residue Sequence	Result
QVQLVESGGGLVQAGGSLRLSCAASGNTFQDYAMGWYRQAPGKERELVAAITQSGGSTFYADSVKGRFTISRDNAKNTVYLQMNSLKPEDTAVYYCATRTRYPRYYYWGQGTQVTVSS	high polyreactivity
QVQLVESGGGLVQAGGSLRLSCAASGYTYGYNAMGSYRQAPGKERELVAAITKNGGSTYYADSVKGRFTISRDNAKNTVYLQMNSLKPEDTAVYYCAARIYYSRTFGYYYWGQGTQVTVSS	high polyreactivity
QVLLVESGGGLVQAGGSLRLSCAASGRIFGYNTMGWYRQAPGKERELVASISYSGGGTYYADSVKGRFTISRDNAKNTVYLQMNSLKPEDTAVYYCNALSYGYDDAYGYWGQGTQVTVSS	low polyreactivity
QGQLVESGGGLVQAGGSLRLSCAASGFIFVVYAMGWYRQAPGKERELVAAITFSGGSTYYADSVKGRFTISRDNAKNTVYLQMISLKPEVTAVYYCAAAEHDREFDSWGHGTQVTVSS	low polyreactivity
QVQLVESGGGLVQAGGSLRLSCAASGSTFYRYAMGWYRQAPGKERELVAAISSDGTTYYADSVKGRFTISRDNAKNTVYLQMISLKPEDTAVYDCAAEGIRRSQRFNYWGQGTQVTVSS	high polyreactivity
QVQLVESGGGLVQAGGSLRLSCAASGSTFAYNAMGWYIQAPGKERELVAAISWGDGITYYADSVKGRFSISRDYAKNTVYLQINILKPEDTAVITRDFGYWGQGTQVTVSS	low polyreactivity
QVQLVESGGGLVQAGGSLRLSRAASGITFGFNAMGWYRQAPGKERELVAAITWSVGRTYYADSVKGRFTISRDNAKNTVYLQMNSLKPEDTAVYYCAKVFEAGDDYFAYDYWGQGTQVTVSS	low polyreactivity
QVQLVESGGGLDQAGGSLRLSCAASGSIFGSYTMGWYRQAPGKERQLVAVINWSGDRTYYADSVKGRFTISRDNAKNTVYLQMNSLKPEDTAVYYCAARERAGYSRIRYNYWGQGTQGTVSS	high polyreactivity

Hi team, please reply with polyreactivity (PSR sort gate) for each item in this list.
1. QVQLVESGGGLVQAGGSLRLSCAPSGGTIAPYAMGWYRQASGKESELDATISNSGTSTNYADSVKGRFTISRDNAKNTVYLQMNSLKPEDTAVYYCAKRYHQYRWRGWLWGFDYWGQGTQVTVLS
2. QVHLVESGGGLVQAGGRLRLSCAASGFTFAHYDMGWYRQAPGKERELVAAITWSGSSTFYADSLKGRFTISRDNAKNTVYLQMYCMKPEDNAVYYCNADYDVSYWFYQDVIYDYWGQGTQVTVSS
3. QVHLVESGGGLVQAGGSLRLSCASSGGIFVTYAMGWYRQAPGKERELVAAITSGDSTYYADSVKGRFTISRDNAKNTVYLQMNSLKPEDTAVYYCAVGSTDRVSAQGSYFTYDYWGQGTQVTVSS
4. QVQLVESGGGLVQAGGSLRISCAASGFIFKKNAMGWYRQAPGKERELVAAITSSGGSTYYADSVKGRFTISRDNAKNTVYFQMNSLKPEDSAVYYCARDKEQQGYRLFGYWGQGTQVTVSS

stdout:
1: high polyreactivity; 2: low polyreactivity; 3: low polyreactivity; 4: high polyreactivity

Go through the list and state polyreactivity (PSR sort gate) for each entry.
1. QVQLVESGGGIVQAGGSLRLSCAASGITFPNYAMGWYRQAPGKERELVAAISSSGGSTYYADSVKGRFTISRDNPKNTVYLQMNSLKPEDTAVYYCATAINVYPRLDYGYWGQGTQVTVSS
2. QVQLVESGGGLVQAGGSLRLSCAASGNIIDANAMGWYRQAPWKERELVAAITSSGGSTYYADSVKGRFTISRDNAKNTVYLQMNSLNPEDTAVYYCAKSHAIYYWWDESWGQGTQVTVSS
3. QVQLVESGGGLVQAGGSLRLSCAASGFTFPQNAKGWYRQAPGKERELVAAITNGGTTYYADSVKGRFTISRDNAKNTVYLQMNSLKPEDTAVYYCAAYTYRYGSFKYGYWGQGTQVTVSS
4. QVQLVESGGGLVQAGGSLRLSCAASGRIFYRNAMGWYRQAPGKERELVAAISYSGGRTYYADSVKGRFTISRDNAKNTVYLQMNSLKPEDTAVFYCAARYAWGYVDPGDYWGQGTQVTVSS
5. QFQLVESGGGLVQAGGILRLSCAASGITFRIYAMGWYRQAPGKERELVAGISSSGSTNYADSVKGRFTISRESAKNTVYLQMNSLKPEDTAVYYCAADAFYKFDYWGQGTQVTESS
6. QVQLVESGGGLVQAGGSLRLSCAASGRIFSWYAMGWYRQAPGKERELVARITTRGGNTYYADSVKGRFTFSRDNAKNTVYLQMNSLKPEVTAVYYCAARHPYPIYDYWGQGTQVSVSS
7. QVQLVESGGGLVEAGGSHRLSCAASGSTFNYYAMGWYRQAPGKERELVASISGGGSTSYADSVKGRFTISRDHAKNTVYLQMNSLNPEHTAVYYCAATPIGQHFPLDYWGPGTQVTVSS

stdout:
low polyreactivity
low polyreactivity
low polyreactivity
high polyreactivity
high polyreactivity
low polyreactivity
low polyreactivity

Please give polyreactivity (PSR sort gate) for each item listed below.
1. QVQLVESGGGLVQAGGSLRLSCAASGSTFWIYAMGWYIQAPGTERELVAAITLRSGSTYYADSVKGRFTISRDNAKNTVYLQMISLKPEDTAVYYCATDSWGVDRPNYNYWGQGTQVTVSS
2. QVQLVESGGGLVQAGGSLRLSCAASGFTFRINAMGWYRQAPGKERELVAAITWIGGSTYYADSVKGRFTISRDNAKNTVYLQMNSLKPEDTALYYCAADVYNRWWWRAYDYWGQGTQVTVSS

stdout:
["low polyreactivity", "high polyreactivity"]

---

# Experiment Summary: yeast display, Sf9 membrane polyspecificity reagent, FACS + sequencing; frameworks hold sequencing errors
Parameter Measured: polyreactivity (PSR sort gate)

Solved entries (count: 4):
Residue Sequence	polyreactivity (PSR sort gate)
QVQLVESGGGLVQAGGSLRLSCAASGRTFKKYAMGWYRQAPGTERELVAAFTGSGGSTYYADSVKGRFTISRDNAKNTVYLKMNSLKPEDTAVYYCAAYAYGVWHSQDGGNYWGQGTQVTVSS	low polyreactivity
QVQLVESGGGLVQAGGSLRLSCAASGSTFPPYAMGWYRQAPGKERELVADITRRGASTYYADSVKGRFTISRDNAKNTDYLQMNSLKPEDTAVYYFAAGPYVGQRWYRYNYDYWGQGTQVTVSS	high polyreactivity
QVQLVESGGGFVQAGGSLRLSCAGSGSTFTSYAMGWYRQAPGKERELVASIRSTSGRTYYADSVKGRFTISRDNAKNTVYLQMNSQKPQDTAVYYCAAATYGTWWTYADNPYDYWGQGTQGTVSS	high polyreactivity
QVQLVESGGGLVQAGGSLRLSCAASGRTFKGYAMGWYSQAPGKDRELVAAISYRGGSTYYADSVKGRFTISRDNAKNTGYLQMNILKPEDTAFYYCAARWNRGRYDYWGQGTQVTVSS	high polyreactivity

Consider the record given below.
stdin: Determine from records and report polyreactivity (PSR sort gate) for QVQLVESGGGLVQAGGSLRLSCAASGRTFDDYTMGWYRQAPGKERELVAAITGGGSTNYADSVKGRFTISRDNAKNTVYLQMNSLKPEDTAVYYCNAEYSRSYRYDEGYWGQGTQVTVSS
stdout: low polyreactivity

---

# Experiment Summary: yeast display, Sf9 membrane polyspecificity reagent, FACS + sequencing; frameworks hold sequencing errors
Parameter Measured: polyreactivity (PSR sort gate)

Example cases with answers are listed next.
Residue Sequence	Parameter Measured	Result
QVQLVESGGGLVQAGGSLRLSCAASGSIFAKYAMGWYRQAPGKERELVAAITYSSSSTYYADSVKGRFTISRDNAKNTVYLQMNSLKPEDTAVYYCAARKKARGHGGNDYWGQGTLVTVSS	polyreactivity (PSR sort gate)	high polyreactivity
QDQLVESAVGLVQAGGSLRLSCDASGSTFDFYDIGWYRQAPGKERELVATIRWSGDTTYYADSVKGRFTISRDNAKNTVYLQMTRLKPEDTAVYYCNADYFGQESWWMDYWGQGTQVTVSS	polyreactivity (PSR sort gate)	low polyreactivity
QVQLVESGGGLVQAGGSLRLSCAASGRIFDTNAMGWYRQAPGKERAFVAAISRSGGSTYYADSVKGRFTISRDNAKNTVYLQMNSLKPEDTAVYYCAARWYVLQPLGYDATHRKYYWGQGTQVTVSS	polyreactivity (PSR sort gate)	high polyreactivity
QVQLEEYGGGLVQAGGSLRLSCAAAGFTCGGYAMGWYRQAPGKDRELVATITRVGSTNYADSVKGRFTISRDNAKNTVYLQMNSLKPEDTAVYYCNTRRVYGHGNAPYDSWGQATQVTVSS	polyreactivity (PSR sort gate)	low polyreactivity
QVQLVESGGGLVQAGGSLRLSCAASGITFRRYAMGWYRQAPGKERELVASITSGGSTNYADSVKGRFTISRDNAKNTVYLQMNSLKPEDTAVYYCAADSRWGMDYWGQGTQVTVSS	polyreactivity (PSR sort gate)	high polyreactivity
QVQLVESGGGLVQAGGSLRLSCAASGRTFKYYAMGWYRQAPGKERELVAAISSGSSTYYADSVKGRFTISRDNAKNTVYLQMNSLKPEDTAVYYCNAVYKLSYLLSGTSEYYTYDYWGQGTQVTVSS	polyreactivity (PSR sort gate)	high polyreactivity

Items follow; give polyreactivity (PSR sort gate) for each.
1. QVQLVESGGGLVQAGGSLRLSCAASGRIFQYYTMGWYRQAPGKERELVAAITYSGGDTRYADSVKGRFTISRDNAKNTVYLQMNSLKPEDTAVYYCAAHYFHQYQYGVWTYGYWGHGTQVTVSS
2. QVQLGESGGGLVQAGGSLRLSCAASGRIYAAYAMGWSRQAPGKERELVAAISGSGGSTSYADSVKGRFTISRDNAKNTVYLQMNSLKPEYTAVYYCAADYSYLAEFDYWGQGTQVTVSS
3. QVQLVDSGGGLVQAGGSLRLSCAASGFIFRYYAMGWNRQATGKERELVAAISWSTDNTYYADSVKGRFTILRDNAKNTVYLQMNSLKPEDTAVYYCAADEGWYGPKLDYWGQGTQVTVSS

stdout:
low polyreactivity
low polyreactivity
low polyreactivity

Okay, here is my list. What is polyreactivity (PSR sort gate) for each of these?
1. QVQLVESGGGLVQAGGSLRLSCAASGRTFNPNAMGWYRQAPGKERELVATISWSSDSTYYADSVKGRFTISRDNAKNTVYLQMNSLKPEDTAVYYCNAQLSYHWYSPGYDYWGQGTQVTVSS
2. QVQLVESGGGLVQAGGSLRLSCAASGSISYRYAMGWYRQAPGKERELVAAISYRGGTTYYADSVKGRFTISRDNAKNTVYLQMNSLKPEDTAVYYCADDFFGSSYPFYYWGQGTQVTVSS

stdout:
["low polyreactivity", "high polyreactivity"]
